# System: HOP-92 NSCLC
# Protocol description: NCI-60 one-dose screen, 48 h
# Recorded conditions: 10 µM unless noted
About 83,000 compounds went through this panel and 20% of them were active in at least one assay; those are over-represented in the sample as a whole. Activity calls are given as the source filed them. Rule for the calls: active = growth percent below 10; inactive = the rest.
I would appreciate it if you answered using one of these outcomes: Yes = active, No = inactive

Incoming: Give the logged outcome of this assay for the following molecule: COc1cc(OC)cc(-c2ccc(-c3ccc(C(=N)N)cn3)s2)c1
Outgoing: No

Incoming: Record lookup: outcome of this test for COc1ccc(CN2CCc3c(Cl)nc(N)nc3C2=O)c(OC)c1 ?
Outgoing: Yes

Incoming: Would you mind telling me which call this test gave CC(Sc1ccccc1)C(=O)O (stereo not drawn) ?
Outgoing: No

Incoming: // return assay outcome for CCN(CC)/C([O-])=c1\cccc\c1=C1\N=C(c2ccccc2)N=C1[n+]1ccc(-c2ccccc2)cc1
Outgoing: No

Incoming: Per the assay record, what outcome was assigned to CCCc1cc(C(N)=S)ccn1 ?
Outgoing: No

Incoming: Fill in: this test's call for O=C(N=Nc1c(O)[nH]c2ccccc12)Nc1ccccc1Cl is ___
Outgoing: No

Incoming: Per the assay record, what outcome was assigned to COc1ccc(C(c2cc(OC)c(OC)c(OC)c2)n2ccnc2)cc1O (stereo not drawn) ?
Outgoing: No

Incoming: # lookup: test call for CC[C@@H]1NC(=O)[C@H]([C@H](O)[C@H](C)C/C=C/c2ccc(CN3C(=O)C(C)=C(C)C3=O)cc2)N(C)C(=O)[C@H](C(C)C)N(C)C(=O)[C@H](CC(C)C)N(C)C(=O)[C@H](CC(C)C)N(C)C(=O)[C@@H](C)NC(=O)[C@H](C)NC(=O)[C@H](CC(C)C)N(C)C(=O)[C@H](C(C)C)NC(=O)[C@H](CC(C)C)N(C)C(=O)CN(C)C1=O
Outgoing: No

---

# Tested on: M14 melanoma
# Protocol description: NCI-60 one-dose screen, 48 h
# Recorded conditions: 10 µM unless noted
Compounds without any hit were thinned out: in the full panel of roughly 83,000, 20% have a hit. Active and inactive are the calls of the source. The calls were made as follows: active = growth percent below 10; inactive = the rest.
Select the matching outcome among yes (1) = active, no (0) = inactive

Incoming: Hello, I am checking results. What call was entered for Nc1nc(N)c2c(n1)NC(c1cccc(Nc3ccnc4cc(C(F)(F)F)ccc34)c1)CC(c1ccc(F)cc1)=N2 (centres undefined) ?
Outgoing: no (0)

Incoming: # outcome recorded in this test, key = C[C@@H]1CC[C@@H]2[C@@H]1[C@H](OC(=O)/C=C/c1ccccc1)[C@]1(c3ccccc3)C[C@@H](NC(=O)CO)[C@@]2(C)O1
Outgoing: no (0)

Incoming: What did this assay record as the result for COc1ccc(C(c2cc(OC)c(OC)c(OC)c2)n2ccnc2)cc1O (centres undefined) ?
Outgoing: yes (1)

Incoming: Please let me know the test result on file for CCCN1C(=O)/C(=c2\sc3n(c2=O)NC2C(N=3)N(CC)C(=O)N2CC)c2ccccc21 (centres undefined) .
Outgoing: no (0)

---

# System: ACHN renal
# Protocol description: NCI-60 one-dose screen, 48 h (100 = growth as untreated, 0 = no growth, -100 = all killed)
# Recorded conditions: 10 µM unless noted
The panel holds about 83,000 compounds, 20% with a hit somewhere; the sample as a whole holds those more often.
Rule: growth below 30% gives TRUE, anything at or above gives FALSE.

Incoming: Field: below-cutoff. Rule: recorded growth strictly less than 30%. Subject: O=C(Oc1ccc(CO[N+](=O)[O-])cc1)c1ccccc1
Outgoing: TRUE

Incoming: Dear reviewer, please state whether CC1(Cc2ccccc2)CC2=C(C(=O)O1)C(c1ccccc1)NC(=O)N2 (stereo not given) has growth strictly beneath 30%.
Outgoing: FALSE

Incoming: Check if growth falls below 30% for CC(=O)/C=C/c1ccc(OCc2ccc(C(C)(C)C)cc2)cc1 .
Outgoing: FALSE

Incoming: Please check: growth for CCCCCCCCn1ccc2cc(NC(=O)CN3CCN(c4nc(C)cc(N5CCCCC5)n4)CC3)ccc21 , strictly under 30% or not?
Outgoing: FALSE

---

# Test system: DU-145 prostate
# Protocol description: NCI-60 one-dose screen, 48 h (100 = growth as untreated, 0 = no growth, -100 = all killed)
# Recorded conditions: 10 µM unless noted
Compounds without any hit were thinned out: in the full panel of roughly 83,000, 20% have a hit. Activity calls are given as the source filed them. How the source made its calls: active means growth percent below 10; inactive means the rest.
Provide the reported growth of each item.

The recorded growth with DU-145 prostate for O=C(CCCCCCCCC(=O)N/N=C\c1ccccc1O)N/N=C\c1ccccc1O was 26.7% (inactive)

Simply: Nc1n[nH]c2cccc(C#Cc3cccc(NC(=O)c4ccc(N5CCOCC5)c(C(F)(F)F)c4)c3)c12 , DU-145 prostate, growth = 25.7% (inactive)

Observed growth on DU-145 prostate, entry COc1ccc(-c2cc(-c3cccnc3)nc3sc4c(Cl)nnnc4c23)cc1OC , equals 94.2% (inactive)

Measured growth for this entry O=C1C(=C(O)c2ccccc2)C(=O)c2ccccc21 on DU-145 prostate: 104% (inactive)

The compound CCc1c2c(nc3ccc(OCc4ccc(B5OC(C)(C)C(C)(C)O5)cc4)cc13)-c1cc3c(c(=O)n1C2)COC(=O)[C@]3(O)CC , when measured on DU-145 prostate, yielded growth of 3.05% (active)

The value of growth recorded for CC1(C)C(N)=Nc2cc(OCCCCN3Cc4ccccc4C3)c(OCC3CC3)cc21 when tested on DU-145 prostate reads 88.8% (inactive)

Result for CC(=O)c1c(C)nc(SCC(=O)Nc2ccc(Cl)cc2)n1-c1ccc(Cl)cc1 , tested on DU-145 prostate, growth: 106% (inactive)

// growth (DU-145 prostate) for CC(=O)c1nn(-c2ccccc2)/c(=N/N=Cc2cn(-c3ccccc3)nc2-c2cc3ccccc3oc2=O)s1 = 107% (inactive)

Field growth (DU-145 prostate), entry COc1ccc(Cn2cc(C(=O)Nc3cccnc3Nc3ccccc3)nn2)cc1 : 103% (inactive)

Entry O=C(NCCCN1CCCCC1)c1ccc(-c2nc3ccc4[nH]ncc4c3c3c2CCCC3)cc1 : growth on DU-145 prostate = 51.3% (inactive)

The compound Nc1ccc(/C=N/Nc2ccnc3c(N)cccc23)c2cccnc12 , when measured on DU-145 prostate, yielded growth of -49.1% (active)

So the reported growth for COc1ccc(/C=C2\COc3ccc(O)c(O)c3C2=O)c(OC)c1OC , on DU-145 prostate, turned out to be 13.9% (inactive)

Entry NC(N)=NC(N)=NCCCc1ccco1 , tested on DU-145 prostate, has a reported growth of 115% (inactive)

Summary: CN(C)C1CCN(C(=O)c2ccc(NC(=O)Nc3ccc(-c4nc(N5CCOCC5)c5cccn5n4)cc3)cc2)CC1 , DU-145 prostate, growth = 0.561% (active)

Measured growth for this entry O=C1/C(=C/c2cn(-c3ccccc3)nc2-c2ccccc2)SC(=S)N1c1ccccc1 on DU-145 prostate: 102% (inactive)

Item COC(=O)c1nc(-c2ccc(C)cc2)oc1S(=O)(=O)c1ccc(Cl)cc1 ; assay system DU-145 prostate; growth reported as 113% (inactive)

Entry O=C(CC1(O)C(=O)Nc2ccc(Br)cc21)c1ccc(Cl)cc1 (stereo not given) under DU-145 prostate had growth of 107% (inactive)

Measured on DU-145 prostate, CCOC(=O)c1cnn(-c2ccc(S(N)(=O)=O)cc2)c1N has a documented growth of 132% (inactive)

Form field, growth with DU-145 prostate, item COc1cc2cc(NCc3ccncc3)nc(C)c2cc1OC : 107% (inactive)

Case COc1ccc(/C=N/NC(=O)CN2CCN(c3cc4c(cc3F)c(=O)c(C(=O)O)cn4C3CC3)CC2)cc1O , DU-145 prostate, growth recorded as 102% (inactive)

Kindly note: DU-145 prostate, Cc1ccc(C(=O)c2ccc(CC(=O)N=Nc3c(O)[nH]c4ccc(OC(F)(F)F)cc34)n2C)cc1 , growth value reported: 102% (inactive)

COc1ccc(CN2CCc3c(Cl)nc(N)nc3C2=O)c(OC)c1 tested on DU-145 prostate gave growth: 20.8% [100 µM] (inactive)

Item: COc1ccc(C(c2cc(OC)c(OC)c(OC)c2)n2ccnc2)cc1O (stereo not given) | System: DU-145 prostate | growth: 12.9% (inactive)

GET /values?item= Cc1ccc(/C=C(\C#N)c2cc3ccccc3[nH]2)cc1 &system= DU-145 prostate returns growth: 73.1% (inactive)

# lookup: CC[C@]12CN3CCc4c([nH]c5ccccc45)[C@@](C(=O)OC)(c4cc5c(cc4OC)N(C)[C@H]4[C@@](O)(C(=O)OC)[C@H](OC(C)=O)[C@]6(CC)C=CCN7CC[C@]54[C@@H]76)CC(C3)[C@H]1O2 (stereo not given in full) on DU-145 prostate, growth = -21.8% (active)

Simply: COc1cccc(NC(=O)c2sc3nc(C)c(C(O)c4ccccc4)cc3c2N)c1 (stereo not given) , DU-145 prostate, growth = 13.4% (inactive)

The compound COc1ccc(Nc2nn3c(SCC(=O)c4ccc(C)cc4)nnc3s2)cc1 on DU-145 prostate: growth was 101% (inactive)

// compound COc1cc(/C=C(/c2ccccc2)[N+](=O)[O-])c(OC)c2c1OCO2 , assay DU-145 prostate, growth value: -87.4% (active)

Case CC(C)(C)CC(N)=O , DU-145 prostate, growth recorded as 111% (inactive)

Summary line: COc1ccc(/C=N/C2=C(C#N)C(c3ccccc3)c3c(ccc4ccccc34)O2)cc1 (stereo not given) , DU-145 prostate, reported growth = 24.6% (inactive)

growth for DU-145 prostate with input Fc1ccc(NC(c2ccc(F)cc2)C2CCN(CCCCc3ccccc3)CC2)cc1 (stereo not given) equals 19.3% (inactive)

The reported DU-145 prostate growth of C/C(=C(\c1ccc(OCCN2CCOCC2)cc1)c1ccc(OC(=O)C2CCCCC2)cc1)c1ccc(Cl)cc1 is 103% (inactive)

Test item CCOC(=O)c1ccc(Nc2ncnc3c2cnn3-c2cccc(F)c2)cc1 ; DU-145 prostate; reported growth was 106% (inactive)

Observed growth, DU-145 prostate, Cc1cccc(-c2nnc(SCC(=O)Nc3ncc(Cc4ccccc4)s3)n2N2C(=O)CSC2=S)c1 : 43.3% (inactive)

The recorded growth with DU-145 prostate for CCC(=O)Oc1cc(Cl)c(Cl)cc1Cl was 103% (inactive)

// compound CN1C(=O)N(C)C2(c3ccccc3)N(CC(=O)Nc3ccccc3O)C(=O)NC12c1ccccc1 (stereo not given) , assay DU-145 prostate, growth value: 110% (inactive)

Recorded growth for COCCn1cc(-c2nc(-c3cn(CCOC)c4ncccc34)cs2)c2ccccc21 on DU-145 prostate was 97.1% (inactive)

Record for Cc1ccc(Cc2cnc(NC(=O)c3cc(C)oc3C)s2)cc1 under target or system DU-145 prostate: growth reported as 75.6% (inactive)

CCCN1C(=O)/C(=c2\sc3n(c2=O)NC2C(N=3)N(CC)C(=O)N2CC)c2ccccc21 (stereo not given) on DU-145 prostate gives growth = 33.5% (inactive)

With DU-145 prostate as the test system, COc1ccc2c(O)c(/C=C3\N=Nc4nc(C)ccc43)oc2c1CC1CCNCC1 showed growth of 87.9% (inactive)
